Cited source: ChEMBL document CHEMBL5724801

# System: U2OS
# assay: Multiplex assay against U2OS
# Format: toxicity, cell-based
# assay context: human, 48 h, 10 µM, compound concentration 10 uM
A collection of compounds and their measured Population Tubulin-Different-Phenotype (%)
Give the number; % is assumed, so skip it.

Entry under review: Cc1c(CC(=O)O)c2cccnc2n1Cc1ccc(S(C)(=O)=O)cc1C(F)(F)F [FEVIPIPRANT] . Reported Population Tubulin-Different-Phenotype (%)? 3

Can you share its Population Tubulin-Different-Phenotype (%)? I mean this compound: COc1cccc2c1c(NS(=O)(=O)c1ccc(Cl)s1)nn2Cc1cccc(CNC(=O)C(C)(C)O)c1 3

Tell me the measured Population Tubulin-Different-Phenotype (%) of CC(=O)Nc1cccc2c1c(Sc1ccc(Cl)cc1)c(C)n2CC(=O)O [AZD1981] , please. 4

Given the compound COc1c(Nc2ccc(S(C)(=O)=O)nc2C)ncnc1OC1CCN(C(=O)OC(C)C)CC1 [ADP-597] , what is its reported Population Tubulin-Different-Phenotype (%)? 2

----------
Readings of Population Hoechst High Intensity Objects (%) for the listed compounds
# Test system: U2OS
# assay: Multiplex assay against U2OS
# Type: toxicity, cell-based
# assay context: human, 48 h, 10 µM, compound concentration 10 uM
Please give a number only; it is taken to be in %.

What Population Hoechst High Intensity Objects (%) value was documented for this compound, CC(C)(O)c1cnc(N2C[C@@]3(CCC[C@](C)(Cn4cnc5ccc(C#N)cc54)C3)OC2=O)cn1 [GSK2798745] ? 0

I'd like to know its Population Hoechst High Intensity Objects (%). The compound in question is C=CC(=O)Nc1cc(Nc2nccc(-n3cc(CN(C)C)c(-c4ccccc4)n3)n2)c(OC)cc1N1CCOCC1 [LAZERTINIB] 0

Requested field: Population Hoechst High Intensity Objects (%). Item: CN(C)Cc1cccc(NC(=C2C(=O)Nc3cc(C(=O)N(C)C)ccc32)c2ccccc2)c1 0

Which value of Population Hoechst High Intensity Objects (%) has been reported for Cc1cc(C)c(NC(=O)C2CC3CCC2C3)c(C)c1 (centres undefined) in the records? 0

----------
# Test system: Fibroblast
# assay: Multiplex assay against human fibroblast
# Format: toxicity, cell-based
# assay context: 12 h, 10 µM, compound concentration 10 uM
Parameter Population Hoechst High Intensity Objects (%): see the listing below.
Give the number; % is assumed, so skip it.

O=C1CSC(=O)N1C(CCc1ccncc1)COc1ccc(-c2cccc([N+](=O)[O-])c2)cc1 (stereo not drawn)    0
Cc1cccc(F)c1C(=O)Nc1cnc(-c2cc3c(cc2Cl)OC(F)(F)O3)cn1    0
O=C(NCc1cccc(O)c1)Nc1nc(-c2ccncc2)cs1    0
Cc1cc(C)c(NC(=O)C2CC3CCC2C3)c(C)c1 (stereo not drawn)    0

Which measured Population Hoechst High Intensity Objects (%) value corresponds to NCCc1cn(S(=O)(=O)c2c(Cl)nc3sccn23)c2ccccc12.O=C(O)C(=O)O ? 6

Entry CC(C)CNc1nc(N2CCN(CC3CCCOC3)CC2)ncc1C(=O)NCc1ccccc1 (stereo not drawn) : reported Population Hoechst High Intensity Objects (%) = ? 0

Quick one: Population Hoechst High Intensity Objects (%) for Cc1cc(C)cc(C(=O)NOCCCCCC(=O)NO)c1 ? 0

Param item = COc1c(Nc2ccc(S(C)(=O)=O)nc2C)ncnc1OC1CCN(C(=O)OC(C)C)CC1 ; retrieve measured Population Hoechst High Intensity Objects (%). 2

----------
# Test system: Fibroblast
# assay: Multiplex assay against human fibroblast
# Assay type: toxicity, cell-based
# assay context: 24 h, 1 µM, compound concentration 1 uM
# Population Normal (%) per record follows
Number plus unit, in that order.

Give recorded Population Normal (%) with Fibroblast for the following molecule: CN(C)CCCn1cc(C2=C(c3c[nH]c4ccccc34)C(=O)NC2=O)c2ccccc21 [GF-109203] 100%

What reported Population Normal (%) corresponds to Cc1cccc(F)c1C(=O)Nc1cnc(-c2cc3c(cc2Cl)OC(F)(F)O3)cn1 [ZEGOCRACTIN] on Fibroblast? 100%

# get_value(readout= Population Normal (%), system= Fibroblast) for O=C(NCc1cccc(O)c1)Nc1nc(-c2ccncc2)cs1 100%

Recorded Population Normal (%) for Cn1ncnc1COc1nn2c(-c3cc(F)ccc3F)nnc2cc1C(C)(C)C with Fibroblast, please? 100%

----------
Listed compounds paired with reported Population Hoechst High Intensity Objects (%)
# Tested on: U2OS
# assay: Multiplex assay against U2OS
# Format: toxicity, cell-based
# assay context: human, 48 h, 1 µM, compound concentration 1 uM
Report as a plain number; the unit % is understood.

# count of solved cases: 5
O=C1CSC(=O)N1C(CCc1ccncc1)COc1ccc(-c2cccc([N+](=O)[O-])c2)cc1 (stereo unspecified)    0
Cc1[nH]nc2ccc(-c3cncc(OCC(N)Cc4c[nH]c5ccccc45)c3)cc12 (stereo unspecified)    0
CN(C)Cc1cccc(NC(=C2C(=O)Nc3cc(C(=O)N(C)C)ccc32)c2ccccc2)c1    0
COc1cc(/C=C(\C#N)C(=O)Nc2nnc(C(F)(F)F)s2)ccc1OCc1ccc(C(F)(F)F)cc1C(F)(F)F    0
C[C@H](C[C@H](N)C(=O)O)C(=O)O [2S,4R-4-METHYLGLUTAMATE]    0

Return reported Population Hoechst High Intensity Objects (%); argument: C=CC(=O)Nc1cc(Nc2nccc(-n3cc(CN(C)C)c(-c4ccccc4)n3)n2)c(OC)cc1N1CCOCC1 0

Report Population Hoechst High Intensity Objects (%) for CC(C)(O)c1cnc(N2C[C@@]3(CCC[C@](C)(Cn4cnc5ccc(C#N)cc54)C3)OC2=O)cn1 please. 0

I have this compound here, CCCCCC(O)/C=C/[C@H]1C(=O)CC(O)C1C/C=C\CCCC(=O)O (stereo partly specified) , and I need its recorded Population Hoechst High Intensity Objects (%). 2

Could you share which Population Hoechst High Intensity Objects (%) value was measured for COC(=O)c1ccc2c(c1)NC(=O)/C2=C(\Nc1ccc(N(C)C(=O)CN2CCN(C)CC2)cc1)c1ccccc1 ? 0

Given the compound Cc1ccc(-c2ccc(F)cc2COc2ccc(CCC(=O)O)cc2)cc1 , what is its reported Population Hoechst High Intensity Objects (%)? 2

Recorded Population Hoechst High Intensity Objects (%) for CCOC(=O)c1cnn(-c2ccc(NC(=O)C(Cl)=C(Cl)Cl)cc2)c1C(F)(F)F , please? 0

Could you share which Population Hoechst High Intensity Objects (%) value was measured for Cc1c(CC(=O)O)c2cccnc2n1Cc1ccc(S(C)(=O)=O)cc1C(F)(F)F ? 2

Item Cc1cccc(F)c1C(=O)Nc1cnc(-c2cc3c(cc2Cl)OC(F)(F)O3)cn1 has what recorded Population Hoechst High Intensity Objects (%)? 0

Tell me the measured Population Hoechst High Intensity Objects (%) of CN(C)C/C=C/C(=O)Nc1ccc(C(=O)N2CCCC(Nc3ncc(Cl)c(-c4c[nH]c5ccccc45)n3)C2)cc1 (stereo unspecified) , please. 3

Given the entry Cl.O=S(=O)(c1cccc2c(I)cccc12)N1CCCNCC1 , report its measured Population Hoechst High Intensity Objects (%). 0

What does the data say about its Population Hoechst High Intensity Objects (%)? Entry: COc1cc(Nc2ncc3c(n2)-c2ccc(Cl)cc2C(c2c(F)cccc2OC)=NC3)ccc1C(=O)O 3

----------
Reported Population Normal (%) is given for each of the following compounds.
# Tested on: U2OS
# assay: Multiplex assay against U2OS
# Type: toxicity, cell-based
# assay context: human, 24 h, 1 µM, compound concentration 1 uM

C=CC(=O)Nc1cc(Nc2nccc(-n3cc(CN(C)C)c(-c4ccccc4)n3)n2)c(OC)cc1N1CCOCC1 [LAZERTINIB]    100%
Cc1cc(NC(=O)c2cccc(NC(=O)/C=C/CN(C)C)c2)ccc1Nc1nccc(-c2cccnc2)n1    100%
O=C(NCc1cccc(O)c1)Nc1nc(-c2ccncc2)cs1    100%
N#Cc1ccnc(Nc2cc(C3CCN(C4COC4)CC3)cc(N3CCC(F)(F)C3)n2)c1    100%
Nc1nccc(-c2ccn3c(N)nccc23)n1    100%
NCCc1cn(S(=O)(=O)c2c(Cl)nc3sccn23)c2ccccc12.O=C(O)C(=O)O    98%
Cc1cc(C)cc(C(=O)NOCCCCCC(=O)NO)c1    100%
Cn1ncnc1COc1nn2c(-c3cc(F)ccc3F)nnc2cc1C(C)(C)C    100%

# lookup: Population Normal (%) of COc1ccc2[nH]c(I)c(CCNC(C)=O)c2c1 [IODOMELATONIN] 98%

Endpoint output: Population Normal (%) of OCCCNc1cc(-c2ccnc(Nc3cccc(Cl)c3)n2)ccn1 . Value? 92%

I am curious: what Population Normal (%) value has been reported for Cc1cccc(F)c1C(=O)Nc1cnc(-c2cc3c(cc2Cl)OC(F)(F)O3)cn1 [ZEGOCRACTIN] ? 100%

What Population Normal (%) value was documented for this compound, O=C(Nc1cc(C(F)(F)F)ccc1N1CCCCC1)c1ccncc1 ? 100%

Which Population Normal (%) value is on record for Cc1c(Cc2ccc3ccccc3n2)c2cc(F)ccc2n1CC(=O)O [TIMAPIPRANT] ? 98%

Reported Population Normal (%), compound COc1cc(/C=C(\C#N)C(=O)Nc2nnc(C(F)(F)F)s2)ccc1OCc1ccc(C(F)(F)F)cc1C(F)(F)F : ____ 100%

Can you look up the measured Population Normal (%) of CN1CCN(c2cc(-c3ccccc3)nc(N)n2)CC1 for me? 98%

Can you look up the measured Population Normal (%) of COc1c(Nc2ccc(S(C)(=O)=O)nc2C)ncnc1OC1CCN(C(=O)OC(C)C)CC1 [ADP-597] for me? 96%
